System: E57 (patient-derived glioblastoma stem cells of mesenchymal subtype)
Protocol summary: surviving fraction (nuclei count normalised to DMSO); higher = more cells surviving (less toxic)
Experimental setup: 111.1 nM; exposure time: 72 h
Structures can show the parent of a compound that is named as a salt.
Outcome measure: surviving fraction
// print number alone

Compound	Target entity	Experimental result
CSc1ccc2c(c1)N(CCC1CCCCN1C)c1ccccc1S2 (stereo not drawn) [Thioridazine hydrochloride]	E57	0.926
CC[C@@]1(O)C(=O)OCc2c1cc1n(c2=O)Cc2cc3cc(O)ccc3nc2-1 [Hydroxy Camptothecine]	E57	0.157

Moving on to the next compound.
Kindly note the recorded surviving fraction for C[C@H]1O[C@@H](O[C@H]2[C@@H](O)C[C@H](O[C@H]3[C@@H](O)C[C@H](O[C@H]4CC[C@@]5(C)[C@H](CC[C@@H]6[C@@H]5C[C@@H](O)[C@]5(C)[C@@H](C7=CC(=O)OC7)CC[C@]65O)C4)O[C@@H]3C)O[C@@H]2C)C[C@H](O)[C@@H]1O [Digoxin] , which is 0.27

---

System: E31 (patient-derived glioblastoma stem cells of proneural subtype)
Protocol summary: surviving fraction (nuclei count normalised to DMSO); higher = more cells surviving (less toxic)
Experimental setup: 333.3 nM; exposure time: 72 h
Would you please tag the item T when its surviving fraction is 1 or above, and F when it is below?

As a guide, the following entries are already answered.
                                   compound  class_label
0  OC[C@H]1O[C@@H](Oc2ccc(O)cc2)[C@H](O)[C@@H](O)[C@@H]1O            T
1  CC[C@@H]1C(=O)N(C)c2cnc(Nc3ccc(C(=O)N[C@H]4CC[C@H](N5CCN(CC6CC6)CC5)CC4)cc3OC)nc2N1C(C)C            F

Q) Form field: surviving fraction at least 1? Entry: CC(C)N1CCN(c2ccc(OCC3COC(Cn4cncn4)(c4ccc(Cl)cc4Cl)O3)cc2)CC1 (stereo not drawn)
A) F

Q) Form field: surviving fraction at least 1? Entry: CC1CNc2c(cccc2S(=O)(=O)N[C@@H](CCCNC(=N)N)C(=O)N2CC[C@@H](C)C[C@@H]2C(=O)O)C1 (stereo partly drawn)
A) F

Q) Form field: surviving fraction at least 1? Entry: C[C@@]12C(=O)OC(=O)[C@]1(C)[C@H]1CC[C@@H]2O1
A) F

Q) Form field: surviving fraction at least 1? Entry: COc1cc(NS(C)(=O)=O)ccc1Nc1c2ccccc2nc2ccccc12
A) F

Q) Form field: surviving fraction at least 1? Entry: CC(C)(C)C1CCN(C(=O)n2ncc(C(O)(c3ccccc3)c3ccccc3)n2)CC1
A) T

---

Let's look at some compounds and their measured phenotypic distance.
Test system: E57
Protocol summary: phenotypic distance (Euclidean, principal components) from DMSO controls (arbitrary units); higher = stronger morphological change
Experimental setup: 12.3 nM; exposure time: 72 h
// print number alone

In [3]: df
Out[3]:
                                   compound  experimental_result
0  CN(c1nccc(=O)[nH]1)C1CCN(c2nc3ccccc3n2Cc2ccc(F)cc2)CC1                0.715

Kindly note the recorded phenotypic distance for CCCCCCCCCCCCCCCC[N+](C)(C)CCN(Cc1ccc(OC)cc1)c1ncccn1 [Thonzonium bromide] , which is 0.566

Kindly note the recorded phenotypic distance for Nc1ccn([C@H]2CC[C@@H](CO)O2)c(=O)n1 , which is 0.448
